Assay Explanation: qHTS Assay for Lipid Storage Modulators in Drosophila S3 Cells;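 also: cells counted by Cell Tracker Red CMTPX staining in the red channel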
Settings: BODIPY lipid droplet fluorescence, 18-24 h, cells fed with added oleic acid; measured here: cell count max response
About 2,100 (0.66%) of roughly 320,000 compounds were called active. Another 53% or so got no clear call; they are omitted. This excerpt belongs to a sample that is enriched for actives.
Quantity Kind: cell number change (%)
Report as a plain number; the unit % is understood.

Challenge: Requested field: cell number change. Item: CCn1c(=O)cc(OCC(=O)Nc2ccc(C)cn2)c2ccccc21
Response given: 8

Challenge: // repeat for COCc1cc(C)nc(SCC(=O)Nc2ccccc2N2CCOCC2)c1C#N and report
Response given: -22.4

Challenge: // repeat for COc1ccccc1C1NC(=O)NC(C)=C1C(=O)OCc1ccccc1 (stereo unspecified) and report
Response given: 8.03

Challenge: // repeat for O=CN1CCN(C(=O)C(=O)c2cn(CC(=O)N3CCCCC3)c3ccccc23)CC1 and report
Response given: 4.31

Challenge: // repeat for O=C(OCc1ccc(Cl)c(Cl)c1)c1ccc[nH]1 and report
Response given: 0.855

Challenge: // repeat for COCc1cc(C)nc(SCC(=O)Nc2ccc(N3CCOCC3)cc2)c1C#N and report
Response given: 5.82

Challenge: // repeat for CN(C)CCCNCCCNC(=O)c1ccncc1 and report
Response given: 10.5

Challenge: // repeat for CCOC(=O)CNC(=O)CSc1nc(Cc2ccccc2)nc2ccccc12 and report
Response given: -15.2

Challenge: // repeat for COCc1cc(C)nc(SCC(=O)Nc2ccc3c(c2)OCCO3)c1C#N and report
Response given: 16.8

Challenge: // repeat for COc1ccccc1C1NC(=O)NC(C)=C1C(=O)OC1CCCCC1 (stereo unspecified) and report
Response given: -18.5

Challenge: // repeat for COc1ccccc1C1NC(=O)NC(C)=C1C(C)=O (stereo unspecified) and report
Response given: 6.66

---

Assay Explanation: qHTS Assay for Lipid Storage Modulators in Drosophila S3 Cells;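 also: cells counted by Cell Tracker Red CMTPX staining in the red channel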
Settings: BODIPY lipid droplet fluorescence, 18-24 h, cells fed with added oleic acid; measured here: cell count max response
The whole screen tested about 320,000 compounds, of which about 2,100 (0.66%) were called active. Inconclusive results (about 53%) are left out. Shown is part of a subset that was picked to be rich in actives.
Kindly supply the reported cell number change values for the records listed here.
Report as a plain number; the unit % is understood.

Challenge: Requested field: cell number change. Item: COc1ccc(S(=O)(=O)NC2CCCC2)cc1NC(C)=O
Response given: 17.4

Challenge: // repeat for CCOCCCNc1nc2c(C)cccn2c(=O)c1/C=C1\SC(=S)N(C(C)CC)C1=O (stereo unspecified) and report
Response given: 29.9

Challenge: // repeat for O=C(NC1CCN(S(=O)(=O)c2ccc(Cl)c(F)c2)CC1)c1cccnc1 and report
Response given: -17.9

Challenge: // repeat for Cc1cccc(C)c1OCC1CNC(=O)O1 (stereo unspecified) and report
Response given: 9.47

Challenge: // repeat for Cc1ccccc1OCC1CNC(=O)O1 (stereo unspecified) and report
Response given: 6.67

Challenge: // repeat for COc1cc(OC)c(CN2CCCCCCC2)cc1Br and report
Response given: -11.5

Challenge: // repeat for Cc1ccc(C(=O)N2CCC3(CC2)Oc2ccc(F)cc2C(=O)C32CC(c3ccccc3)=NO2)s1 (stereo unspecified) and report
Response given: 11.1

Challenge: // repeat for O=S(=O)(c1ccc2c(c1)N(Cc1ccc(Cl)cc1)C1CCCN21)N1CCOCC1 (stereo unspecified) and report
Response given: -5.65

Challenge: // repeat for CCc1ccc(N(CC(=O)NC(C)(C)C)C(=O)CCC(=O)Nc2ccccn2)cc1 and report
Response given: 19.3

Challenge: // repeat for CCCCN(c1ccccc1)c1ncnc2nc[nH]c12 and report
Response given: 0.284

Challenge: // repeat for C=CCn1c(CNC(=O)c2ccccc2F)nnc1SCC(=O)NC(C)c1ccccc1 (stereo unspecified) and report
Response given: 1.35

---

Assay Explanation: qHTS Assay for Lipid Storage Modulators in Drosophila S3 Cells;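 also: cells counted by Cell Tracker Red CMTPX staining in the red channel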
Settings: BODIPY lipid droplet fluorescence, 18-24 h, cells fed with added oleic acid; measured here: cell count max response
In all, about 320,000 compounds went through this assay and about 2,100 (0.66%) were called active. Another 53% or so got no clear call; they are omitted. Many of the other results were omitted from the sample, so actives are more common in it than they were.
Kindly supply the reported cell number change values for the records listed here.
Give me the value, and tack the unit on after it.

Challenge: Requested field: cell number change. Item: CCC1=NN2C(=N)/C(=C/c3ccc(OS(=O)(=O)c4ccccc4)c(OC)c3)C(=O)N=C2S1
Response given: 4.58%

Challenge: // repeat for CCC1=NN2C(=N)/C(=C/c3ccc(OS(=O)(=O)c4ccc(C)cc4)c(OC)c3)C(=O)N=C2S1 and report
Response given: 5%

Challenge: // repeat for COc1cc(/C=C2\C(=N)N3N=CSC3=NC2=O)ccc1OS(=O)(=O)c1ccccc1[N+](=O)[O-] and report
Response given: -11.4%

Challenge: // repeat for COc1cc(/C=C2\C(=N)N3N=CSC3=NC2=O)ccc1OS(=O)(=O)c1ccccc1 and report
Response given: -21.2%

---

Assay Explanation: qHTS Assay for Lipid Storage Modulators in Drosophila S3 Cells;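 also: cells counted by Cell Tracker Red CMTPX staining in the red channel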
Settings: BODIPY lipid droplet fluorescence, 18-24 h, cells fed with added oleic acid; measured here: cell count max response
About 2,100 (0.66%) of roughly 320,000 compounds were called active. Roughly 53% stayed inconclusive and do not appear here. The full list was thinned out, with actives kept by preference.
Quantity Kind: cell number change (%)
Report as a plain number; the unit % is understood.

Challenge: Requested field: cell number change. Item: COc1ccc(CC(=O)OCC(=O)N2N=C(c3ccccc3)CC2c2ccc(OC)cc2)cc1 (stereo unspecified)
Response given: 9.3

Challenge: // repeat for COc1cc(C2CC(c3cccs3)=NN2C(=O)CCl)ccc1OC(F)F (stereo unspecified) and report
Response given: 6.96

Challenge: // repeat for COc1ccc(C2CC(c3ccccc3)=NN2C(=O)COC(=O)c2cccnc2)cc1 (stereo unspecified) and report
Response given: -20.7

Challenge: // repeat for COc1ccc(NC(=O)COC(=O)[C@@H]2CCCN2C(=O)c2cccs2)c(OC)c1 and report
Response given: -0.232

Challenge: // repeat for O=C(O)CCN1C(=O)S/C(=C\c2cccnc2)C1=O and report
Response given: 3.35

Challenge: // repeat for CCOC(=O)c1c(NC(=O)C2CC2)sc2c1CC(C)(C)OC2 and report
Response given: 0.857

Challenge: // repeat for Cc1ccc(Cn2nnnc2CN2CCC(O)(c3cccnc3)CC2)cc1 and report
Response given: 1.82

Challenge: // repeat for COc1ccc(C2=NN(C(=O)CSc3ncccn3)C(c3ccc(OC)cc3)C2)cc1 (stereo unspecified) and report
Response given: -13.6

Challenge: // repeat for CC1=C(C(=O)OCc2ccccc2)C(c2cccc([N+](=O)[O-])c2)NC(=O)N1 (stereo unspecified) and report
Response given: 10.6

Challenge: // repeat for CCOC(=O)[C@@H]1[C@H]2COc3ccccc3[C@H]2N2C(=O)N(c3ccc(C(F)(F)F)cc3)C(=O)[C@]12C and report
Response given: 21.9

Challenge: // repeat for CCOC(=O)C1=C(COc2ccccc2)NC(=O)NC1c1cccc([N+](=O)[O-])c1 (stereo unspecified) and report
Response given: 3.89

Challenge: // repeat for O=C(O)/C=C/C(=O)NC1CCC(CC2CCC(NC(=O)/C=C/C(=O)O)CC2)CC1 (stereo unspecified) and report
Response given: 16.5

Challenge: // repeat for O=C(NCCN1C(=O)S/C(=C/c2cccnc2)C1=O)c1cccs1 and report
Response given: -5.78

Challenge: // repeat for CCOC(=O)C(N)CSC1CC(=O)N(c2ccc(C(=O)OC)cc2)C1=O (stereo unspecified) and report
Response given: 8.08

Challenge: // repeat for O=C(CCC(=O)N(CC(=O)NC1CCCCC1)Cc1cccs1)Nc1nccs1 and report
Response given: -2.3

Challenge: // repeat for Cn1c(N2CCN(C(=O)Nc3ccc(F)cc3)CC2)nc2ccccc21 and report
Response given: 17.1

Challenge: // repeat for CCOC(=O)CSc1ccc(S(=O)(=O)N2CCCCC2)cc1[N+](=O)[O-] and report
Response given: 12.9

Challenge: // repeat for CCOC(=O)CSc1ccc(S(=O)(=O)N(CC)CC)cc1[N+](=O)[O-] and report
Response given: 15.5

Challenge: // repeat for COc1ccc(C2CC(c3cccs3)=NN2C(=O)c2ccccc2)cc1OC (stereo unspecified) and report
Response given: 0.175

Challenge: // repeat for COC(=O)c1c(NC(=O)c2ccco2)sc(C(=O)N2CCCC2)c1C and report
Response given: -26.3

Challenge: // repeat for O=C(NCCN1C(=O)S/C(=C\c2cccnc2)C1=O)c1ccc([N+](=O)[O-])s1 and report
Response given: 0.268

Challenge: // repeat for COc1ccc(NC(=O)COC(=O)[C@@H]2CCCN2C(=O)c2cccs2)cc1 and report
Response given: 7.9

Challenge: // repeat for O=C1c2ccccc2C(=O)N1Cc1ccccn1 and report
Response given: -28

Challenge: // repeat for CC[C@@H](C)[C@@H](C(=O)N1CCN(C(=O)OC(C)(C)C)CC1)n1cc(CCCN=C(NC(=O)OC(C)(C)C)NC(=O)OC(C)(C)C)nn1 and report
Response given: -5.51

Challenge: // repeat for COc1ccc(/C=C2/SC(=O)N(CCNC(=O)C3COc4ccccc4O3)C2=O)cc1 (stereo unspecified) and report
Response given: -11.7

Challenge: // repeat for COc1ccccc1C(C)NC(=O)c1cc(=O)[nH]c2ccccc12 (stereo unspecified) and report
Response given: -5.13

Challenge: // repeat for S=c1nc(C2CC2)n(-c2ccccc2)[nH]1 and report
Response given: 6.79

Challenge: // repeat for Cc1csc(NC(=O)CCC(=O)N(CC(=O)NC2CCCC2)Cc2ccco2)n1 and report
Response given: 5.63

Challenge: // repeat for Cc1sc2nc(COC(=O)c3ccc(N4CCCC4)c([N+](=O)[O-])c3)[nH]c(=O)c2c1C and report
Response given: 5.98

Challenge: // repeat for O=C(COC(=O)C1CCCN1C(=O)c1cccs1)Nc1ccc2c(c1)OCO2 (stereo unspecified) and report
Response given: 11.1

Challenge: // repeat for S=c1[nH]nc(-c2cccs2)n1/N=C/c1cn(-c2ccccc2)nc1-c1ccccc1 and report
Response given: -2.97

Challenge: // repeat for CC(=O)c1cn(CC(=O)NCC2CCCO2)c2ccccc12 (stereo unspecified) and report
Response given: 3.78

Challenge: // repeat for COc1ccc(C2CC(c3ccc4ccccc4c3OC(C)=O)=NN2C(=O)/C=C/c2ccccc2)cc1 (stereo unspecified) and report
Response given: -4.95

Challenge: // repeat for COc1ccc(C2=NN(C(=O)CSc3ncccn3)C(c3ccc(C)cc3)C2)cc1 (stereo unspecified) and report
Response given: -13.1

Challenge: // repeat for CCOC(=O)C1=C(CBr)NC(=O)NC1C (stereo unspecified) and report
Response given: -12.6

Challenge: // repeat for CC(C)CCNC(=O)CN(C(=O)CCC(=O)Nc1nccs1)C1CCCCC1 and report
Response given: -4.17

Challenge: // repeat for C=CCC1(N(C(C)=O)c2ccccc2C)CCCCC1 and report
Response given: -21.1

Challenge: // repeat for COc1ccc(/C=C2/SC(=O)N(CCNC(=O)C3CCCN3C(=O)c3cccs3)C2=O)cc1 (stereo unspecified) and report
Response given: -3.84

Challenge: // repeat for CCOC(=O)[C@@H]1[C@H]2COc3ccccc3[C@@H]2N2C(=O)N(c3ccc(F)cc3)C(=O)[C@@]12C and report
Response given: -1.5

Challenge: // repeat for Cc1ccc(C(=O)NCCNC(=O)c2ccco2)cc1C and report
Response given: 19.6

Challenge: // repeat for CCOC(=O)C(N)CSC1CC(=O)N(c2ccc(OCC)cc2)C1=O (stereo unspecified) and report
Response given: 8.77
